Experiment: protease stability score; higher = more stable; yeast display proteolysis, trypsin and chymotrypsin;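 note: relative to predicted unfolded state with 0 unfolded-like and 1 meaning tenfold more protease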
Recorded measurements of protease stability score, one per entry
Assay metric: protease stability score

1) DERSEEVRRLIKNLVDFFHTGDWRLIQDLADPNVRTDVNGVEHHGREEVTKMLEELVRRFRNVRLHIRDHHIQGEWVIVILEFHVGDKSFELHMFALKINGRWTLTSIEVR: 2.37
2) DEDEELVETHIRHEIRSAKTGDEESLHRLLDPNTRIEIGDKVFVGRETFTKWLRKLLHDAGVSKFEVHVRDMEIQGEKLILDGEWHINGVTIRTRIIVHKVNGRWHNKHMQME: 0.582
3) SHVEEESREAIERFEHLLRTGNEEELENLADPNVLLRVNGKEIWGRERAIKHIIHEMTRVKNMKLTSESFEISENHIHFKFTLTINGKIIHLEIVTKKVDGRWVIKHVEFH: 1.32
4) DDEERIASFVIKMWLHSYLTGDENLLREFLDPNVKVRNEVNGRDWTHHGREALLWLLEFLGVKHVEHVRLHDLLVVNGRATSREIYHGKIGDKRTTFHFTLYIIRIDGVVKKFEIELE: 1.3
5) SEMEETLKKAFHNLLEHIKTGDEQLLKEFLDPNTKVEVDGVELIGMEKFIELMREIEKRVDVIRSLELEHWEVVGNKIRMEVRLNIEINGKDTFTRTHLIALKVNGRWILHSVRIG: 1.75
6) SEEEEQVTESFEHFFRARYTGDEHTLLRMMDPNVRVIVDGKDIHGWEEVIRYLVHIRIKRSELHDREIRVVNGRAIVHLDVHTDREVDGVRIETRIILILYAEKIDGRWVFKEVKIEVR: 1.29
7) DHEVAKTMMEEWQKALENGDDKKLKELYDPDGEWEADDEQDQGTEVIEKLMEKVKKQGLKFQVRKAKVEGDKFTVVYDLHVGNKTATFEVEVHVEGGRIKKVKAKADEEAKKLITEG: 2.05
8) DEEEEALEEVLRLLSKAILTGDEDQMRELVDPHVRVHVGDKDLIGWDRYKRHTKEMRIIIHRFELRDKRRVGNKLEFDGHMDYELIVNGRTWKHREDMFMVIVKVNGKWHIHYEQVD: 0.88
9) DEDEEREKVYHELHLHNLLTGNEEILANLVDPHVLSIVNGKELHGMDEVRKLWQELGWTWHDIHIHDEKRIGNKVHIDVRLNGNINGRTMIVRAKITITKINGRWYVSHIEII: 0.718
10) DHHEELRHWFLEIYRRIMITGDEKELEKLIDPHAKLRINGREHVGMEYIQRIFDLLRHEIRFKDMDIREYHLVDGQIDDHSVLTLHINGKEVTRETRIVNRKVNGRWKIEVESIH: 0.622
11) DDSDEHTKRATDELRHNLRTGDEERILKLVDPNARIDINGVKVIGWHMVEELVRKFWEEMRVEELEIHDMKVYGDKAIVDGYVEQRQGNKFIYIKTEIIKVKIDGRWILTELRFR: 0.57
12) SEENEVIHRVIYYWIRAMKTGDEHLVSRLFDPNARHEIDGVDHVGWEEILKFFRRFDHLHHFHVNHIESHGDKIILDGRVDGEVNGQHLRFHVEIISLKVNGRWINQSEHVH: 1.81
13) SEEEELHRLLRERYIKNALTGNEKHLRRLADPNTRNNVNGRTHHGWDFYTDMISRLGADHVQIHDRHVDIQGEYIDVHLEVELNINGKHHRLDVRIIILKVDGKWTLHSFEML: 0.553
14) DEEEEQARDLTKLLEKLWATGDEHTLLRLLDPNARNIVGDKEHHGREILLKFWRHLGVSRVESKIEDVKVFDGRVYIKGRVRFDGVELETEIESEKVNGQWHIRIIRMR: 1.79
15) DEREEWVERIERRLKEAIRTGDEHTLSKNMDPDAKLDINGVDLIGWERVIDFLRELRKELGVDKIHFRVESRRIIGDKAELDTRLHVNGKHHDTHVIIEKFNGVWSIHSLHVR: 1.15
16) DNEERYMIKLLHMLWLAFLTGDEELWYKLADPHVRWTFENREIHGREQFVKEQRRIKNMRIEMELKDVRVQGDKIHTDGHLEINQGDKHIHTDVRLHLVVINGRLHEFHVTLV: 1.54
